- Assay overview: NCI Yeast Anticancer Drug Screen. Data for the bub3 strain (AID 167)
- Condition info: S. cerevisiae bub3 mutant strain, at 5.0 µM (retest, dose inferred, filed as 0.5)
The panel holds about 79,000 compounds, 15% with a hit somewhere; the sample as a whole holds those more often. Active and inactive are the calls of the source. Rule as the data show it: active = growth inhibition above about 70%; inactive = the rest.
Hi there, use one of these labels in your reply, thanks! 1.0 (active), 0.0 (inactive)

These solved cases illustrate the format of a correct answer.
compound=CN(C)C(=S)[S][Hg][c]1ccccc1 discrete_label=1.0
compound=COc1cc(OC)c(/C=C(\C)[N+](=O)[O-])cc1Br discrete_label=0.0

How did this test come out for C(#C[PH+](c1ccccc1)c1ccccc1)c1ccccc1.C(#C[PH+](c1ccccc1)c1ccccc1)c1ccccc1.C(#C[PH+](c1ccccc1)c1ccccc1)c1ccccc1.[C-]#[O+].[C-]#[O+].[C-]#[O+].[Cr] ?
0.0

Item: C[CH2][Sn]([Cl])([CH2]C)[CH2]C
0.0

Item: c1ccc(C[As](c2ccccc2)c2ccccc2)cc1
1.0

Item: COc1c(Br)cc(/C=C/[N+](=O)[O-])cc1Br
1.0

Item: CC[C@@]1(O)C[C@H](OC2CC(N(C)C)C(O)C(C)O2)c2c(cc3c(c2O)C(=O)c2c(O)ccc(O)c2C3=O)[C@H]1C(=O)OC (some centres undefined)
1.0

Item: Oc1c(Cl)c(Cl)cc(Cl)c1Cc1c(Cl)cc(Cl)c(Cl)c1[O][Pb]([c]1ccccc1)([c]1ccccc1)[c]1ccccc1
1.0

Item: O=C(O)c1cccc2cccc(C(=O)O)c12.[Hg]
1.0

Item: COc1cc(C2c3cc4c(cc3[C@@H](Nc3ccc([N+](=O)[O-])cc3)C3COC(=O)[C@H]23)OCO4)cc(OC)c1O (some centres undefined)
0.0

Item: CC1CCC2(OC1)OC1C(O)C3C4CCC5CC(OC6OC(CO)C(OC7OC(CO)C(O)C(OC8OCC(O)C(O)C8O)C7OC7OC(CO)C(O)C(OC8OC(CO)C(O)C(O)C8O)C7O)C(O)C6O)C(O)CC5(C)C4CCC3(C)C1C2C (centres undefined)
1.0

Item: C[CH2][Sn]([O][Sn]([Cl])([CH2]C)[c]1ccccc1)[c]1ccccc1 (centres undefined)
0.0

Item: O=[N+]([O-])c1ccc(NP(=S)(Nc2ccc([N+](=O)[O-])cc2)c2ccccc2)cc1
0.0

Item: O=[N+]([O-])c1cc(-c2ccccc2)ccc1O
0.0

Item: COc1cc2c(cc1OC)C(OC)N(C)c1c-2ccc2cc3c(cc12)OCO3 (centres undefined)
0.0

Item: O=C(CC(=O)c1ccccc1)c1ccccc1.O=C(CC(=O)c1ccccc1)c1ccccc1.O=C(CC(=O)c1ccccc1)c1ccccc1.[Al]
0.0

Item: Nc1nc(N)c(-c2ccc(Cl)c(Cl)c2)c(COc2cccc(CNS(=O)(=O)c3ccc(S(=O)(=O)F)cc3)c2)n1
0.0

Item: ClCc1ccncc1
0.0

Item: [Cl][Pt+2][Cl].[NH-]c1ccc([N+](=O)[O-])cc1[NH-]
1.0

Item: Cc1cc(C)c(C[N+](C)(C)C)c(C)c1C
1.0

Item: CC(=O)[O][Sn]([c]1ccccc1)([c]1ccccc1)[c]1ccccc1
1.0

Item: ClCCN(CCCl)CCN1c2ccc3ccccc3c2Sc2ccc3ccccc3c21
0.0

Item: NCCCN1CCN(CCCN2CC2)CC1
0.0

Item: COC(=O)C1ON(c2ccccc2)C2c3ccccc3-c3ccccc3C12 (centres undefined)
0.0
